The measured values listed here are drawn from ChEMBL document CHEMBL1821628.

Measured pIC50 by item
Biological target: Nitric oxide synthase, inducible (Mus musculus)
Sequence (P29477 whole entry): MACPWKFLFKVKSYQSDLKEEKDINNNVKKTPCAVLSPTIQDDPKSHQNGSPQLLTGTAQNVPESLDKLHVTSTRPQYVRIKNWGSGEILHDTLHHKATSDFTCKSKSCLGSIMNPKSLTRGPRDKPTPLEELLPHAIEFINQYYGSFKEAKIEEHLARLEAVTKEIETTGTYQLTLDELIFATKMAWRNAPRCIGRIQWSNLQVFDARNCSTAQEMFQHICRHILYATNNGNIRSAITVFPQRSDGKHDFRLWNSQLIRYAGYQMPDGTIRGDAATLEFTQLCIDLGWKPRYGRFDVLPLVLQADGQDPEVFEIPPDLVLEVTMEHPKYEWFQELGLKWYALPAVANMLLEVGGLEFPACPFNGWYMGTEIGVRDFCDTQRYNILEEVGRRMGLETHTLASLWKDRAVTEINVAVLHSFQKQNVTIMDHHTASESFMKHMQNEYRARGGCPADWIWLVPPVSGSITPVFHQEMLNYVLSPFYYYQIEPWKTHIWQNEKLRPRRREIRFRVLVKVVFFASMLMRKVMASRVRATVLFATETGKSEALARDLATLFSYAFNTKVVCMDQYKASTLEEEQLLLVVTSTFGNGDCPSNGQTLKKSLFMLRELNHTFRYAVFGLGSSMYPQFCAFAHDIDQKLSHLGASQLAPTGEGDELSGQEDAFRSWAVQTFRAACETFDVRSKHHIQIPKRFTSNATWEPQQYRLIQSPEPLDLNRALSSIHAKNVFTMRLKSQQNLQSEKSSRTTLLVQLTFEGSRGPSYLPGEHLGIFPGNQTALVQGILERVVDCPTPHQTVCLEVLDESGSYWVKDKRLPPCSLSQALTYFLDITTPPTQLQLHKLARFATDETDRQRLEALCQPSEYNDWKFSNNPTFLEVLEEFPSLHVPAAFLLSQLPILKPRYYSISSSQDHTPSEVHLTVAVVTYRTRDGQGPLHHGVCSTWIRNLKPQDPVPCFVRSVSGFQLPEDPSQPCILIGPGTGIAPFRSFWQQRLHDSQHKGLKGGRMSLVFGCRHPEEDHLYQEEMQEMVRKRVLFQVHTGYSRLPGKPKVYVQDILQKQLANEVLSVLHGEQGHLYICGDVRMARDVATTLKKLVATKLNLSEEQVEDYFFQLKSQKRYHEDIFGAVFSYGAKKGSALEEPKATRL
When answering, recall that pIC50 equals minus log10 of the concentration in mol/L, and write that number alone.

Previously resolved entries follow.
Prompt line: pIC50 of COc1cc([C@@H]2O[C@@H](c3cc(OC)c4c(c3)OCO4)[C@H](C)[C@H]2C)cc2c1OCO2 (relative stereo) on Nitric oxide synthase, inducible (Mus musculus)?
Response line: 4.28

Prompt line: pIC50 of CC(C)CNC(=O)[C@@H]1C=C[C@@H]2C[C@H]3[C@H](Cc4ccc5c(c4)OCO5)[C@H]4C=C[C@@H]1[C@@H]2[C@H]43 (relative stereo) [ENDIANDRAMIDE A] on Nitric oxide synthase, inducible (Mus musculus)?
Response line: 5.02

Prompt line: pIC50 of COc1cc([C@@H]2O[C@@H](c3cc(OC)c4c(c3)OCO4)[C@H](C)[C@H]2C)cc(O)c1OC (relative stereo) on Nitric oxide synthase, inducible (Mus musculus)?
Response line: 4.29

Kindly consider the entry below.
Prompt line: pIC50 of `N=C(N)NN` on Nitric oxide synthase, inducible (Mus musculus)?
Response line: 4.58
